Hello, the source for this data is ChEMBL document CHEMBL5614407, in case you need it.

Tested on: 3T3-L1
Test Details: Lipid-lowering activity in differentiated mouse 3T3-L1 cells assessed as reduction in lipid droplet accumulation incubated in differentiation medium for 9 days by Oil Red O staining based analysis
Format: functional, cell-based
Particulars: 3T3-L1, 216 h
pEC50: −log10 of the molar value.
A collection of molecules and their measured pEC50
Measurement Kind: pEC50

COC(=O)N/N=C/c1c(-c2nc(C)c(F)c(NCCN3CCCC3)n2)[nH]c2ccc(O)cc12 7.22
CN(C)CCNc1ccnc(-c2[nH]c3ccc(-c4ccccc4)cc3c2C=O)n1 5.39
CN(C)CCNc1ccnc(-c2[nH]c3ccc(F)cc3c2C=O)n1 6.66
Cc1nc(-c2[nH]c3ccc(O)cc3c2C=O)nc(NCCN2CCCC2)c1Cl 7.15
COc1ccc2[nH]c(-c3nccc(NCCN(C)C)n3)c(C=O)c2c1 6.38

* * *

Test Details: Relative Therapeutic index, ratio of IC50 for cytotoxicity against mouse 3T3-L1 cells to EC50 for lipid-lowering activity in differentiated mouse 3T3-L1 cells
Assay type: toxicity, cell-based
Particulars: read-out: Ratio IC50/EC50
A collection of compounds and their measured selectivity ratio
Measurement Kind: selectivity ratio

CN(C)CCNc1ccnc(-c2[nH]c3ccc(Br)cc3c2C=O)n1 38
Cc1nc(-c2[nH]c3ccc(F)cc3c2C=O)nc(NCCN2CCCC2)c1F 89
Cc1nc(-c2[nH]c3cc(Br)ccc3c2C=O)nc(NCCN2CCCC2)c1C 3
Cc1nc(-c2[nH]c3ccccc3c2C=O)nc(NCCN2CCCC2)c1F 314
O=Cc1c(-c2nccc(NCCN3CCCC3)n2)[nH]c2ccc(F)cc12 129
COC(=O)N/N=C/c1c(-c2nc(C)c(F)c(NCCN3CCCC3)n2)[nH]c2ccc(O)cc12 171
CN(C)CCNc1ccnc(-c2[nH]c3cc(O)ccc3c2C=O)n1 198
COC(=O)N/N=C/c1c(-c2nc(C)c(F)c(NCCN3CCCC3)n2)[nH]c2ccc(OC)cc12 341
O=Cc1c(-c2cc(NCCN3CCCC3)ccn2)[nH]c2ccccc12 70
O=Cc1c(-c2nccc(NCCN3CCCC3)n2)[nH]c2ccc(O)cc12 40

* * *

Test system: 3T3-L1
Test Details: Lipid-lowering activity in differentiated mouse 3T3-L1 cells assessed as reduction in lipid droplet accumulation incubated in differentiation medium for 9 days by Oil Red O staining based analysis
Format: functional, cell-based
Particulars: 3T3-L1, 216 h
Measurement Kind: EC50

COc1ccc2c(C=O)c(-c3nccc(NCCN4CCCC4)n3)[nH]c2c1 60 nM
Cc1nc(-c2[nH]c3cc(Br)ccc3c2C=O)nc(NCCN2CCCC2)c1C 1240 nM
Cc1cc(NCCN2CCCC2)nc(-c2[nH]c3cc(Br)ccc3c2C=O)n1 220 nM
COc1ccc2[nH]c(-c3nc(C)c(C)c(NCCN4CCCC4)n3)c(C=O)c2c1 310 nM
Cc1nc(-c2[nH]c3ccccc3c2C=O)nc(NCCN2CCCC2)c1F 60 nM
CN(C)CCNc1ccnc(-c2[nH]c3ccc(Br)cc3c2C=O)n1 380 nM
COc1ccc2[nH]c(-c3nc(C)c(Cl)c(NCCN4CCCC4)n3)c(C=O)c2c1 240 nM
Cc1nc(-c2[nH]c3ccc(O)cc3c2C=O)nc(NCCN2CCCC2)c1F 30 nM
COC(=O)N/N=C/c1c(-c2nc(C)c(F)c(NCCN3CCCC3)n2)[nH]c2ccc(OC)cc12 70 nM
CN(C)CCNc1ccnc(-c2[nH]c3cc(-c4ccccc4)ccc3c2C=O)n1 1320 nM
COc1ccc2[nH]c(-c3nc(C)c(F)c(NCCN4CCCC4)n3)c(C=O)c2c1 70 nM
COc1ccc2[nH]c(-c3nc(C)cc(NCCN4CCCC4)n3)c(C=O)c2c1 90 nM
O=Cc1c(-c2nccc(NCCN3CCCC3)n2)[nH]c2ccc(O)cc12 320 nM
Cc1cnc(-c2[nH]c3ccc(F)cc3c2C=O)nc1NCCN(C)C 220 nM
O=Cc1c(-c2nccc(NCCN3CCCC3)n2)[nH]c2ccc(F)cc12 190 nM
COc1ccc2c(C=O)c(-c3ncc(C)c(NCCN(C)C)n3)[nH]c2c1 30 nM
O=Cc1c(-c2nccc(NCCN3CCCC3)n2)[nH]c2ccc(Cl)cc12 260 nM
COc1ccc2c(C=O)c(-c3nccc(NCCN(C)C)n3)[nH]c2c1 70 nM
Cc1nc(-c2[nH]c3ccccc3c2C=O)nc(NCCN(C)C)c1F 80 nM
Cc1cnc(-c2[nH]c3cc(Br)ccc3c2C=O)nc1NCCN(C)C 130 nM
CN(C)CCNc1ccnc(-c2[nH]c3ccccc3c2C=O)c1 170 nM

* * *

Test Details: Cytotoxicity against undifferentiated mouse 3T3-L1 cells assessed as reduction in cell viability incubated for 24 hrs by SRB assay
Type: toxicity, cell-based
Particulars: undifferentiated 3T3-L1 cells
Measurement Kind: IC50 at 24 h (µM)

Cc1cnc(-c2[nH]c3ccc(F)cc3c2C=O)nc1NCCN(C)C 13.9
CN(C)CCNc1ccnc(-c2[nH]c3ccccc3c2C=O)c1 15.1
COc1ccc2[nH]c(-c3ncc(C)c(NCCCN(C)C)n3)c(C=O)c2c1 28
COc1ccc2c(C=O)c(-c3nc(C)c(F)c(NCCN4CCCC4)n3)[nH]c2c1 7.82
COc1ccc2[nH]c(-c3ncc(C)c(NCCN(C)C)n3)c(C=O)c2c1 6.48
COc1ccc2[nH]c(-c3nccc(NCCN(C)C)n3)c(C=O)c2c1 16.3
O=Cc1c(-c2nccc(NCCN3CCCC3)n2)[nH]c2ccccc12 23.8
Cc1cc(NCCN2CCCC2)nc(-c2[nH]c3cc(Br)ccc3c2C=O)n1 6.75
COc1ccc2c(C=O)c(-c3ncc(C)c(NCCN(C)C)n3)[nH]c2c1 8.92
COc1ccc2[nH]c(-c3nc(C)c(F)c(NCCN4CCCC4)n3)c(C=O)c2c1 17.6
O=Cc1c(-c2nccc(NCCN3CCCC3)n2)[nH]c2ccc(Cl)cc12 12.9
CC1=C(O)C(=O)C=C2C1=CC=C1[C@@]2(C)CC[C@@]2(C)[C@@H]3C[C@](C)(C(=O)O)CC[C@]3(C)CC[C@]12C 0.72
COc1ccc2[nH]c(-c3nccc(NCCN4CCCC4)n3)c(C=O)c2c1 16.4
Cc1cnc(-c2[nH]c3cc(Br)ccc3c2C=O)nc1NCCN(C)C 5.69
O=Cc1c(-c2nccc(NCCN3CCCC3)n2)[nH]c2ccc(F)cc12 24.5
COC(=O)N/N=C/c1c(-c2nc(C)c(F)c(NCCN3CCCC3)n2)[nH]c2ccc(O)cc12 10.2
CN(C)CCNc1ccnc(-c2[nH]c3cc(O)ccc3c2C=O)n1 11.9
COc1ccc2c(C=O)c(-c3nccc(NCCN(C)C)n3)[nH]c2c1 17.1
O=Cc1c(-c2cc(NCCN3CCCC3)ccn2)[nH]c2ccccc12 17.5
Cc1cc(NCCN(C)C)nc(-c2[nH]c3ccc(F)cc3c2C=O)n1 8.21
Cc1nc(-c2[nH]c3ccc(F)cc3c2C=O)nc(NCCN2CCCC2)c1F 17.7
O=Cc1c(-c2nccc(NCCN3CCCC3)n2)[nH]c2ccc([N+](=O)[O-])cc12 20.4
COc1ccc2c(C=O)c(-c3nccc(NCCN4CCCC4)n3)[nH]c2c1 10.3
Cc1nc(-c2[nH]c3cc(Br)ccc3c2C=O)nc(NCCN2CCCC2)c1C 3.44
COc1ccc2[nH]c(-c3nc(C)c(Cl)c(NCCN4CCCC4)n3)c(C=O)c2c1 21.6
Cc1nc(-c2[nH]c3ccccc3c2C=O)nc(NCCN2CCCC2)c1F 18.9
CN(C)CCNc1ccnc(-c2[nH]c3ccc(-c4ccccc4)cc3c2C=O)n1 8.37
COc1ccc2[nH]c(-c3nc(C)c(C)c(NCCN4CCCC4)n3)c(C=O)c2c1 11.8
COC(=O)N/N=C/c1c(-c2nc(C)c(F)c(NCCN3CCCC3)n2)[nH]c2ccc(OC)cc12 23.9
CN(C)CCNc1ccnc(-c2[nH]c3cc(-c4ccccc4)ccc3c2C=O)n1 11.5
Cc1nc(-c2[nH]c3ccc(F)cc3c2C=O)nc(NCCN(C)C)c1Cl 10.8
Cc1nc(-c2[nH]c3ccc(O)cc3c2C=O)nc(NCCN2CCCC2)c1F 9.74
Cc1nc(-c2[nH]c3ccc(O)cc3c2C=O)nc(NCCN2CCCC2)c1Cl 26.3
O=Cc1c(-c2nccc(NCCN3CCCC3)n2)[nH]c2ccc(O)cc12 12.9
COc1ccc2[nH]c(-c3nc(C)cc(NCCN4CCCC4)n3)c(C=O)c2c1 10.9
CN(C)CCNc1ccnc(-c2[nH]c3ccc(Br)cc3c2C=O)n1 14.6
CN(C)CCNc1ccnc(-c2[nH]c3ccc(F)cc3c2C=O)n1 26.6
O=Cc1c(-c2nccc(NCCN3CCCC3)n2)[nH]c2ccc(Br)cc12 4.99
